Where do the numbers come from? From ChEMBL document CHEMBL3526083.

- System: Liver microsome
- Experiment Notes: Drug metabolism in human liver metabolism assessed as 5OH-omeprazole formation measured per mg of microsomal protein
- Assay type: ADME
- Condition Description: microsomes
Reported Property: Vmax (nmol/min/mg)
Please state the figure in nmol/min/mg; there is no need to write the unit.

Query :: Would you kindly share the measured Vmax for COc1ccc2[nH]c([S+]([O-])Cc3ncc(C)c(OC)c3C)nc2c1 (stereo unspecified) ?
Result :: 0.11

====

- System: Liver microsome
- Experiment Notes: Drug metabolism in human liver metabolism assessed as omeprazole sulfone depletion measured as intrinsic unbound clearance per mg of microsomal protein
- Format: ADME
- Condition Description: microsomes
Reported Property: CL free (µL/min/mg)
Please state the figure in µL/min/mg; there is no need to write the unit.

Query :: Would you kindly share the measured CL free for COc1ccc2[nH]c([S+]([O-])Cc3ncc(C)c(OC)c3C)nc2c1 (stereo unspecified) ?
Result :: 35

====

- Tested on: Liver microsome
- Experiment Notes: Drug metabolism in human liver microsomes assessed as 3-hydroxymorphinan formation
- Type: ADME
Reported Property: Km (µM)
Please state the figure in µM; there is no need to write the unit.

Query :: Would you kindly share the measured Km for CN1CC[C@@]23CCCC[C@@H]2[C@@H]1Cc1ccc(O)cc13 [DEXTRORPHAN] ?
Result :: 910

====

- Test system: Liver microsome
- Experiment Notes: Drug metabolism in human liver microsomes assessed as dextrophan-O-glucuronide formation
- Type: ADME
Reported Property: Km (µM)
Please state the figure in µM; there is no need to write the unit.

Query :: Would you kindly share the measured Km for CN1CC[C@@]23CCCC[C@@H]2[C@@H]1Cc1ccc(O)cc13 [DEXTRORPHAN] ?
Result :: 690

====

- Tested on: Liver microsome
- Experiment Notes: Drug metabolism in human liver metabolism assessed as 5OH-omeprazole formation measured as intrinsic unbound clearance per mg of microsomal protein
- Format: ADME
- Condition Description: microsomes
Reported Property: CL free (µL/min/mg)
Please state the figure in µL/min/mg; there is no need to write the unit.

Query :: Would you kindly share the measured CL free for COc1ccc2[nH]c([S+]([O-])Cc3ncc(C)c(OC)c3C)nc2c1 (stereo unspecified) ?
Result :: 8.2

====

- Test system: Liver microsome
- Experiment Notes: Drug metabolism in human liver metabolism assessed as omeprazole sulfone formation
- Type: ADME, tissue-based
Reported Property: Km
Include the unit right after the number.

Query :: Would you kindly share the measured Km for COc1ccc2[nH]c([S+]([O-])Cc3ncc(C)c(OC)c3C)nc2c1 (stereo unspecified) [OMEPRAZOLE] ?
Result :: 11 µM

====

- System: Liver microsome
- Experiment Notes: Drug metabolism in human liver metabolism assessed as omeprazole sulfone formation measured per mg of microsomal protein
- Type: ADME
- Condition Description: microsomes
Reported Property: Vmax (nmol/min/mg)
Please state the figure in nmol/min/mg; there is no need to write the unit.

Query :: Form: Entry = COc1ccc2[nH]c([S+]([O-])Cc3ncc(C)c(OC)c3C)nc2c1 (stereo unspecified) | System = Liver microsome | Vmax = ____
Result :: 0.074

====

- System: Liver microsome
- Experiment Notes: Drug metabolism in human liver metabolism assessed as omeprazole sulfone formation measured as intrinsic clearance per mg of microsomal protein
- Assay type: ADME
- Condition Description: microsomes
Reported Property: CLint (µL/min/mg)
Please state the figure in µL/min/mg; there is no need to write the unit.

Query :: Form: Entry = COc1ccc2[nH]c([S+]([O-])Cc3ncc(C)c(OC)c3C)nc2c1 (stereo unspecified) [OMEPRAZOLE] | System = Liver microsome | CLint = ____
Result :: 6.6
